Collected from the literature: pIC50 of various compounds toward Macrophage colony-stimulating factor 1 receptor (Homo sapiens, UniProt P07333).
pIC50: −log10 of the molar value.
Assay metric: pIC50

| Compound smiles | Assay metric | Relation | Quantitative readout |
| --- | --- | --- | --- |
| CS(=O)(=O)Nc1cccc(-c2cnc3[nH]cc(C(=O)c4cc(Cl)cc(Cl)c4)c3c2)c1 | pIC50 | ≥ | 5.00 |
| COc1cc2nccc(Oc3ncc(NC(=O)c4cn(C(C)C)nc(-c5ccc(F)cc5)c4=O)cn3)c2cc1OC | pIC50 | = | 6.59 |
| CN1CCn2nc(Nc3ncc4cc(C#N)c(=O)n(C5CCCC5)c4n3)cc2C1 | pIC50 | = | 8.19 |

* * *

Collected from the literature: pIC50 of various molecules toward Macrophage colony-stimulating factor 1 receptor (Homo sapiens, UniProt P07333).
pIC50: −log10 of the molar value.

| Compound smiles | pIC50 |
| --- | --- |
| COc1ccc(CNc2ccc(Cc3c[nH]c4ncncc34)c(F)n2)c(OC)n1 | ≥ 5.00 |
| CCCS(=O)(=O)Nc1cccc(C(=O)c2c[nH]c3ncc(Br)cc23)c1C | ≥ 5.00 |
| COc1ccc(CNc2ccc(Cc3c[nH]c4ncnc(OC)c34)cn2)cn1 | ≥ 5.00 |
| CCCCS(=O)(=O)Nc1ccc(F)c(C(=O)c2c[nH]c3ncccc23)c1 | ≥ 5.00 |
| O=C(c1cnc(NC2CCC(F)(F)CC2)c(F)c1)c1c[nH]c2ncnc(NC3CC3)c12 | > 8.00 |
| COc1cc(CNc2ccc(Cc3c[nH]c4ncncc34)c(F)n2)ccn1 | ≥ 5.00 |
| CC(C)C[C@H](NCc1cccc(-c2cnc(N)c(NCc3c(Cl)cccc3Cl)n2)c1)C(=O)OC(C)(C)C | < 5.30 |
| COc1cc(Cc2c[nH]c3ncccc23)cc(OC)c1 | ≥ 5.00 |
| Cc1ccnc(CNc2ccc(Cc3c[nH]c4ncncc34)c(F)n2)c1 | ≥ 5.00 |
| CS(=O)(=O)c1cccc(-c2cnc3[nH]cc(C(=O)c4cc(O)ccc4F)c3c2)c1 | ≥ 5.00 |
| Cc1ccccc1C(=O)c1c[nH]c2ncc(-c3ccsc3)cc12 | ≥ 5.00 |
| COc1cc(Cc2c[nH]c3ncc(-c4ccsc4)cc23)cc(OC)c1 | ≥ 5.00 |
| O=C(c1cccc(NS(=O)(=O)c2ccc(Cl)cc2)c1)c1c[nH]c2ncc(Cl)cc12 | ≥ 5.00 |
| CC(C)N1CCOc2c(F)cc(-c3nc(Nc4ccc(C(=O)N5CCC(N(C)C)CC5)c(F)c4)ncc3F)cc21 | 7.77 |
| O=C(c1c(F)ccc(NS(=O)(=O)c2ccc(C(F)(F)F)cc2)c1F)c1c[nH]c2ncccc12 | ≥ 5.00 |
| CN1CCc2cc(Nc3ncc4cc(C#N)c(=O)n(C5CCCC5)c4n3)ccc2C1 | 8.26 |
| Cc1cnc2[nH]cc(Cc3cnc(Nc4ccc(C(C)(C)C)cc4)nc3)c2c1 | > 7.00 |

* * *

Collected from the literature: pIC50 of various molecules toward Macrophage colony-stimulating factor 1 receptor (Homo sapiens, UniProt P07333).
pIC50: −log10 of the molar value.

| Molecule | pIC50 |
| --- | --- |
| COc1ccnc2[nH]cc(Cc3ccc(NCc4ccc(Cl)cc4)nc3)c12 | ≥ 5.00 |
| CCCS(=O)(=O)Nc1ccc(F)c(C(=O)c2c[nH]c3ncc(-c4ccc(OCCOC)cc4)cc23)c1F | ≥ 5.00 |
| CC(C)(C)OC(=O)[C@H]1CC(NCc2ccc(-c3cnc(N)c(NCc4c(Cl)cccc4Cl)n3)cc2)CCN1 (some centres unmarked) | > 7.00 |
| COc1cc2nccc(Oc3ncc(NC(=O)c4nn(C(C)C)cc(-c5ccc(F)cc5)c4=O)cn3)c2cc1OC | 6.79 |
| CCc1ccc(Nc2ccc(C(=O)c3c[nH]c4ncnc(N)c34)c(F)n2)cn1 | > 8.00 |
| FC(F)(F)c1ccc(CNc2ccc(Cc3c[nH]c4ncncc34)cn2)cn1 | ≥ 5.00 |
| Cc1cc(C)cc(S(=O)(=O)Nc2ccc(F)c(C(=O)c3c[nH]c4ncc(Cl)cc34)c2F)c1 | ≥ 5.00 |
| CN1CCN(c2ccc(Nc3ncc4cc(C#N)c(=O)n(C5CCCC5)c4n3)cc2CO)CC1 | > 9.00 |

* * *

Collected from the literature: IC50 of various compounds toward Macrophage colony-stimulating factor 1 receptor (Homo sapiens, UniProt P07333).
Assay metric: IC50

| Compound | Result |
| --- | --- |
| CC(C)(C)OC(=O)[C@H]1CC(NCc2ccc(-c3cnc(N)c(NCc4c(F)cccc4F)n3)cc2)CCN1 (some centres unmarked) | 300 to 1000 nM |
| COc1ccc(Nc2ncc(Cc3c[nH]c4ncc(C)cc34)cn2)cc1F | < 100 nM |
| COc1cc(Cc2c[nH]c3ncc(Cl)cc23)c(Cl)cc1OCc1ccc(Cl)cc1F | ≤ 10000 nM |
| CC(C)C[C@H](NCc1ccc(-c2cnc(N)c(NCc3c(Cl)cccc3Cl)n2)cc1)C(=O)OC(C)(C)C | 1000 to 5000 nM |
| O=C(NCCN1CCOCC1)Nc1ccc(F)c(C(=O)c2c[nH]c3ncc(Cl)cc23)c1F | ≤ 10000 nM |
| O=C(Nc1ccc(F)c(Cc2c[nH]c3ncc(Cl)cc23)c1F)N1CCOCC1 | ≤ 10000 nM |
| CCNc1ncnc2[nH]cc(C(=O)c3cnc(NC4CCC(F)(F)CC4)c(F)c3)c12 | < 1000 nM |
| Fc1ccccc1Cc1c[nH]c2ncc(Br)cc12 | ≤ 10000 nM |
| N#Cc1cc2cnc(Nc3ccc4c(c3)NC(=O)CC4)nc2n(C2CCCC2)c1=O | < 1 nM |
| Cn1cc(-c2cnc3[nH]cc(Cc4cc(Cl)c(OCc5nc6ccccc6[nH]5)cc4F)c3c2)cn1 | ≤ 10000 nM |
| COc1cc2c(Oc3ccc(NC(=O)C4(C(=O)Nc5ccc(F)cc5)CC4)cc3)ccnc2cc1N1CCNC1=O | < 100 nM |
| CC(=O)N(Cc1ccc(-c2cnc(N)c(NCc3c(Cl)cccc3Cl)n2)cc1)C1CCN[C@@H](C(=O)OC2CCCC2)C1 (some centres unmarked) | 100 to 300 nM |
| CCCS(=O)(=O)Nc1cccc(C(=O)c2c[nH]c3ncc(-c4cccnc4)cc23)c1F | ≤ 10000 nM |
| COc1ncnc2[nH]cc(Cc3ccc(NCc4cnccc4C(F)(F)F)nc3F)c12 | ≤ 10000 nM |
| Cc1cc(C)cc(C(=O)Nc2cccc([C@@H](C)Oc3cc(-c4cnn(C)c4)cnc3N)c2)c1 | ≤ 50 nM |
| CC(C)Oc1ncccc1CNc1ccc(Cc2c[nH]c3ncncc23)c(F)n1 | ≤ 10000 nM |
| CCCCS(=O)(=O)Nc1ccc(F)c(C(=O)c2c[nH]c3ncc(-c4cnn(C)c4)cc23)c1F | ≤ 10000 nM |
| COc1cc(Cc2c[nH]c3ncc(Cl)cc23)c(F)cc1OCc1nc2cc(S(=O)(=O)N(C)C)ccc2[nH]1 | ≤ 10000 nM |
| O=C(c1ccc(Cl)cc1Cl)c1c[nH]c2ncc(-c3cccnc3)cc12 | ≤ 10000 nM |
| CC(C)N1CCOc2c(F)cc(-c3nc(Nc4ccc(N5CCN(C(=O)CN(C)C)CC5)cc4)ncc3F)cc21 | 24 nM |
| O=C(NCc1ccc(F)cc1)Nc1ccc(F)c(Cc2c[nH]c3ncc(Cl)cc23)c1F | ≤ 10000 nM |
| NC(=O)c1cn(-c2ccc3c(c2)CCC3)c2nc(Nc3cccc(N4CCNCC4)c3)ncc2c1=O | 0.42 nM |
| COc1cccc(Cc2c[nH]c3ncc(-c4cccc(NS(C)(=O)=O)c4)cc23)c1F | ≤ 10000 nM |
| O=C(c1cccc(NS(=O)(=O)C2CCCCC2)c1)c1c[nH]c2ncc(Cl)cc12 | ≤ 10000 nM |
| N#Cc1cnc2[nH]cc(C(=O)c3c(F)ccc(NS(=O)(=O)CCC(F)(F)F)c3F)c2c1 | ≤ 10000 nM |
| CS(=O)(=O)c1cccc(-c2cnc3[nH]cc(C(O)c4c(F)ccc(F)c4F)c3c2)c1 (centres unmarked) | ≤ 10000 nM |
| Cc1nc(-c2cnc3n(c2=O)CCCN3C)ccc1C(=O)c1c[nH]c2ncccc12 | 168 nM |
| CCc1ccc(CNc2ncc(Cc3c[nH]c4ncncc34)cn2)nc1 | ≤ 10000 nM |
| CN1CCN(Cc2cccc(Nc3ncc4c(=O)c(C(N)=O)cn(-c5ccc6c(c5)CCC6)c4n3)c2)CC1 | 1.5 nM |
| Nc1ncc(-c2cccc(CCNC3CCN[C@H](C(=O)OC4CCCC4)C3)c2)nc1NCc1c(Cl)cccc1Cl (some centres unmarked) | < 100 nM |
| CC(C)c1cccc(C(=O)Nc2cccc([C@@H](C)Oc3cc(-c4cnn(C)c4)cnc3N)c2)c1 | ≤ 50 nM |
| CCOc1ccc(Nc2ccc(C(=O)c3c[nH]c4ncnc(C)c34)c(F)n2)cn1 | < 100 nM |
